Target: pooled human IgG (human IgG1, 2, 3 and 4)
Below, each entry is listed alongside its reported Enzyme Activity Endpoint Assay (purified): scIgG.
Kindly provide the numeric value in ng/µL only, without the unit symbol.

# protein, units.symbol, endpoint.result
records = [
    ("PRT-598 (protein) MANQEIRYSEETPSTITSVWTKGVTPPTDFIQNEDVLHAPYIANQGWYDITKTFNGKDDLLCGAATAGNMLHWWFDQNKEQIENYLKKHPEKQKINFNGEQMFDVKEAIDTKDSQTDSALFEYFKDKAFPYLSTKHLGVFPDHVIDMFINGYRLSLTNHGPTPVKRGTKDPRGGIFDAVFTRGDQSKLLTSRHDFKEKTLNEISDLIKQELTEGKALGLSHTYANVRINHVINLWGADFNAEGNLEAIYVTDSDSNASIGMKKYFVGVNSAGKVAISAKEIEGDNIGAQVLGLFTLSTGQDIWNQTNLEHHHHHH", "ng/µL", 213),
]

Now for a further protein.
Challenge: # return recorded Enzyme Activity Endpoint Assay (purified): scIgG for input PRT-421 (protein) MTITSVWTKGVTPPTPEDFRYNNEDVLHAPYVANQGWYDITKTFDGKDNLLCGAATAGNMLHWWFDQNKEEIERYLKKHPEKQKIIFNNQELFDVKAAIDTKDSQTNSKLFDYFRDKAFPNLSARQLGVMPDLVLDMFINGYYLNLGKTQSTDVNRPYQDKDKRGGIFDAVFTRGDQTTLLTARHDLKNKGLNEISDLIKQELTEGKALALSHTYANVRINHVINLWGADFDAEGNLIAIYVTDSDANASIGMKKYFVGVNANGKVAISAKKIEGDNIGAQVLGLFTLSTGQDIWQKLS
Response given: 0
